Biological target: native human transporter GlyT1 (Homo sapiens)
Construct: expressing the native human transporter GlyT1; endogenous in cells
Experiment: Study of glycine transportation ([14C]glycine uptake) in SK-N-MC cells expressing the native human transporter GlyT1
Settings: 10 μM [14C]glycine, 10 min at 37° C., concentration which reduces by 50% the specific uptake of glycine, read-out: CI50 (the source's name)
Reported pIC50 values for the following compounds.
In textbook form, pIC50 equals minus log to base ten of the concentration in mol/L.

The compound CSc1ncccc1C(=O)NC(c1ccccc1)C12CCCC(CN1)C2 (racemic) showed pIC50 equal to 6.85

###

Molecular target: native human transporter GlyT1 (Homo sapiens, UniProt P48067)
Construct: expressing the native human transporter GlyT1; endogenous in cells
Sequence (P48067 whole entry): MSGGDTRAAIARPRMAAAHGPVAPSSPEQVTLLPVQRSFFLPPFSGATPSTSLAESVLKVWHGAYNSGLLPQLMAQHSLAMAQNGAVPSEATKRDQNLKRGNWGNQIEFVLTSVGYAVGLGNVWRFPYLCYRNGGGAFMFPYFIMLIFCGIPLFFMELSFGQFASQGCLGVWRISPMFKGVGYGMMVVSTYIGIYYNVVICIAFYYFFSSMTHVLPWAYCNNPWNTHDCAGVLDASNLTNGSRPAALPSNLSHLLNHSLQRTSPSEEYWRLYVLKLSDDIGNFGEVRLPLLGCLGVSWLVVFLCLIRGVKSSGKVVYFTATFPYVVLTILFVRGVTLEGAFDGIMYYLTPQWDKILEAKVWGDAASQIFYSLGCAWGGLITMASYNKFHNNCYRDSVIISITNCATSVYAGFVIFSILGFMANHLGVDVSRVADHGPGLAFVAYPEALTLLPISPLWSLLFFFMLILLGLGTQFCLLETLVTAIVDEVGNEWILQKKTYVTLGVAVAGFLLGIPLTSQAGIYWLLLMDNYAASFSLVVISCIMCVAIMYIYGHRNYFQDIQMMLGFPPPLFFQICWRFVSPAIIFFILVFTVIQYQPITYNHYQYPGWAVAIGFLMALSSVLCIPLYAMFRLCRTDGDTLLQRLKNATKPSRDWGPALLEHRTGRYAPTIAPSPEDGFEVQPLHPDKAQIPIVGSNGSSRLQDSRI
Assay: Study of glycine transportation ([14C]glycine uptake) in SK-N-MC cells expressing the native human transporter GlyT1
Conditions: 10 μM [14C]glycine, 10 min at 37° C., concentration which reduces by 50% the specific uptake of glycine, read-out: CI50 (the source's name)
Protocol: Study of Glycine Transportation in SK-N-MC Cells Expressing the Native Human Transporter GlyT1. The uptake of [^14C]glycine is studied in SK-N-MC cells (human neuroepithelial cells) expressing the native human transporter GlyT1 by measuring the radioactivity incorporated in the presence or absence of the test compound. […] The radioactivity incorporated by the cells is then estimated after adding 100 μl of liquid scintillant and stirring for 1 h. […]
Property Name: IC50 (nM)
Lab book: enter the figure in nM, no units written.

These solved cases illustrate the format of a correct answer.
Molecule: O=C(NC(c1cccc(C(F)(F)F)c1)C12CCCC(CN1)C2)c1nccc(C(F)(F)F)c1Cl (racemic) [Compound 11]
Property Name: IC50
Reported Result: 170
--
Molecule: CSc1ncccc1C(=O)NC(c1ccc(F)cc1)C12CCCC(CN1)C2 (racemic) [Compound 8]
Property Name: IC50
Reported Result: 130
--
Molecule: O=C(NC(c1ccccc1)C12CCCC(CN1)C2)c1cccc2c1ccn2Cc1ccccc1 (stereo not shown) [Compound 6]
Property Name: IC50
Reported Result: 610

The molecule O=C(NC(c1ccccc1)C12CCCC(CN1)C2)c1nccc(C(F)(F)F)c1Cl (racemic) [Compound 3] showed IC50 equal to 220

Ref: patent US20120029027A1
